Test system: 876862-298-R-J1-PDC complex spheroids, viability % test/control;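 further: spheroids exposed to drugs for 7 days before readout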
assay.overview: Anticancer human tumor 876862-298-R-J1-PDC patient-derived endometrial carcinoma cell line growth inhibition [CLK]; active means viability on the fitted dose curve at most 10% of control; inactive means the rest
assay.context: second compound 3.16 µM; first compound 0.0316 µM
Choose the fitting class; nothing outside TRUE (active), FALSE (inactive) is accepted.

Here's what some known entries look like.
1. C=CC(=O)N1CCN(c2nc(=O)n(-c3c(C)ccnc3C(C)C)c3nc(-c4c(O)cccc4F)c(F)cc23)C(C)C1 (stereo not given) + CN1CCN(c2cc(C(=O)Nc3cc4cc(-c5cnn(C)c5)ccc4cn3)ccn2)CC1
TRUE
2. CC1COCCN1c1cc(C2(S(C)(=N)=O)CC2)nc(-c2ccnc3[nH]ccc23)n1 (stereo not given) + CNC(=O)c1ccc(Nc2nc(OC3CCCC3)c3c(-c4ccc5nc(C)oc5c4)c[nH]c3n2)c(OC)c1
FALSE
3. COc1cccc2c1C(=O)c1c(O)c3c(c(O)c1C2=O)CC(O)(C(=O)CO)CC3OC1CC(N)C(O)C(C)O1 (stereo not given) + CNC(=O)c1ccc(Nc2nc(OC3CCCC3)c3c(-c4ccc5nc(C)oc5c4)c[nH]c3n2)c(OC)c1
FALSE
4. COC1C=CCC(C)C(C)S(=O)(=O)NC(=O)c2ccc3c(c2)N(CC2CCC21)CC1(CCCc2cc(Cl)ccc21)CO3 (stereo not given) + CNC(=O)c1ccc(Nc2nc(OC3CCCC3)c3c(-c4ccc5nc(C)oc5c4)c[nH]c3n2)c(OC)c1
FALSE
5. COc1c(OCCCN2CCOCC2)ccc2c3n(c(=NC(=O)c4cnc(N)nc4)nc12)CCN3 + CNC(=O)c1ccc(Nc2nc(OC3CCCC3)c3c(-c4ccc5nc(C)oc5c4)c[nH]c3n2)c(OC)c1
FALSE
6. CC(Nc1ccc2c(c1)OCCn1cc(N3C(=O)OCC3C(F)F)nc1-2)C(N)=O (stereo not given) + CN1CCN(c2cc(C(=O)Nc3cc4cc(-c5cnn(C)c5)ccc4cn3)ccn2)CC1
TRUE
7. CCc1c2c(nc3ccc(O)cc13)-c1cc3c(c(=O)n1C2)COC(=O)[C@]3(O)CC + CN1CCN(c2cc(C(=O)Nc3cc4cc(-c5cnn(C)c5)ccc4cn3)ccn2)CC1
TRUE
8. CC(=O)O[C@H]1C(=O)[C@@]2(C)[C@H]([C@H](OC(=O)c3ccccc3)[C@]3(O)C[C@H](OC(=O)[C@H](O)[C@@H](NC(=O)c4ccccc4)c4ccccc4)C(C)=C1C3(C)C)[C@]1(OC(C)=O)CO[C@@H]1C[C@@H]2O + CNC(=O)c1ccc(Nc2nc(OC3CCCC3)c3c(-c4ccc5nc(C)oc5c4)c[nH]c3n2)c(OC)c1
FALSE

Each compound tested received a call. Report the one for C=C(F)C(=O)N1CCN(c2nc(OCC3CCCN3C)nc3c2CCN(c2cccc4cccc(Cl)c24)C3)CC1CC#N (stereo not given) + CNC(=O)c1ccc(Nc2nc(OC3CCCC3)c3c(-c4ccc5nc(C)oc5c4)c[nH]c3n2)c(OC)c1 .
FALSE

Each compound tested received a call. Report the one for CC(CO)NC(=O)c1cc(-c2ccc(Cl)cc2)nn(-c2cnn(C)c2)c1=O (stereo not given) + CN1CCN(c2cc(C(=O)Nc3cc4cc(-c5cnn(C)c5)ccc4cn3)ccn2)CC1 .
TRUE
